All figures here come from ChEMBL document CHEMBL1135067.

Species on record: Oryctolagus cuniculus
method notes: Tested in vitro for maximal rate of platelet aggregation induced by adenosine diphosphate (10 e5 mol/L) at a dose of 10 e6 mol/L in rabbit blood
Type: functional
Where a SMILES comes first, the peptide text is derived from it. [ ]: non-standard residue; d: D form. Tpi = O=C(O)[C@@H]1Cc2c([nH]c3ccccc23)CN1

molecule: CC(C)[C@H](NC(=O)[C@H](CC(=O)O)NC(=O)CNC(=O)[C@H](CCCN=C(N)N)NC(=O)[C@@H]1Cc2c([nH]c3ccccc23)CN1)C(=O)O (H-[Tpi]RGDV-OH)
Am: 26.01%

molecule: CC(C)[C@H](NC(=O)[C@H](CC(=O)O)NC(=O)CNC(=O)[C@@H](N)CCCN=C(N)N)C(=O)O (H-RGDV-OH)
Am: 29.4%

molecule: N=C(N)NCCC[C@H](NC(=O)[C@@H]1Cc2c([nH]c3ccccc23)CN1)C(=O)NCC(=O)N[C@@H](CC(=O)O)C(=O)N[C@@H](Cc1ccccc1)C(=O)O (H-[Tpi]RGDF-OH)
Am: 21.05%

molecule: N=C(N)NCCC[C@H](NC(=O)[C@@H]1Cc2c([nH]c3ccccc23)CN1)C(=O)NCC(=O)N[C@@H](CC(=O)O)C(=O)N[C@@H](CO)C(=O)O (H-[Tpi]RGDS-OH)
Am: 43.05%

molecule: O=C(O)[C@@H]1Cc2c([nH]c3ccccc23)CN1
Am: 45.16%

molecule: N=C(N)NCCC[C@H](N)C(=O)NCC(=O)N[C@@H](CC(=O)O)C(=O)NC(CO)C(=O)O (single isomer, unassigned)
Am: 40.54%

molecule: NC(N)=NCCC[C@H](N)C(=O)NCC(=O)N[C@@H](CC(=O)O)C(=O)N[C@@H](Cc1ccccc1)C(=O)O (H-RGDF-OH)
Am: 22.11%
